Just for reference, patent US20260167721A1 is where these values come from.

- Tgt: T1, recombinant human CD3 epsilon/gamma heterodimer (human, UniProt P07766 23-126; P09693 23-116)
- T1 construct: Recombinant protein in solution (200-50 nM) in the Octet assay; also called hCD3 E/G
- Measurement Notes: Octet BLI, mAb on FAB2G sensor, hCD3 E/G 200-50 nM; R^2 0.99
pKd: −log10 of the molar value.
Listed here are binders together with their documented pKd.

- Binder: "ABL-CD3-56 (antibody, V domains shown, Chimeric hybridoma mAb: human V, CH1, upper hinge; mouse middle hinge, CH2, CH3) VH: EVQLVESGGGLVKPGGSLRLSCVASGFTFSRYSMNWVRQAPGKGLEWVSSISSSSRYTYYADSLKGRFIMSRDNAKNSLFLQMNSLRAEDTAVYYCARNLYNALDYWGQGTLVTVSS VL: FMLTQPHSVSESPGKTVTISCTRSSGSIASNYVQWYQQRPGSSPTTVIYEDNQRPSGVPDRFSGSIDSSSNSASLTISGLQTEDEADYYCQSYDSSNRVFGGGTKLTVL"
  pKd: 9.03
- Binder: "ABL-CD3-50 (antibody, V domains shown, Chimeric hybridoma mAb: human V, CH1, upper hinge; mouse middle hinge, CH2, CH3) VH: QVQLQQSGPGLVKPSQTLSLTCAISGDSVSSNSVAWNWIRQSPSRGLEWLGRTYSRSKWYNDYAVSVKSRITINPDTSKNQFSLELNSVTPEDTAVYYCARERKWELFLDYWGQGTLVTVSS VL: NFMLTQPHSVSESPGKTVTISCTRSSGSIASNYVQWYQQRPGISPTTVIYEDNQRPSGVPDRFSGSIDSSSNSASLTISGLKTEDEADYYCQSFDTSNVVFGGGTKLTVL"
  pKd: 7.90
- Binder: "ABL-CD3-53 (antibody, V domains shown, Chimeric hybridoma mAb: human V, CH1, upper hinge; mouse middle hinge, CH2, CH3) VH: EVQLVESGGGLVKPGGSLRLSCAASGFTFSSYTMNWVRQAPGKGLEWVSSITTSSSYIYYADSVKGRFTISRDNAKNSLYLQMNSLRAEDTAVYYCARVTFDAFDIWGQGTMVTVSS VL: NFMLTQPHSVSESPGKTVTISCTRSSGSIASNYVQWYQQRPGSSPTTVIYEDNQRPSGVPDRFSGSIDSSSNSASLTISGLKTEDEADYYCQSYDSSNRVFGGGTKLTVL"
  pKd: 7.05
- Binder: "ABL-CD3-12 (antibody, V domains shown, Chimeric hybridoma mAb: human V, CH1, upper hinge; mouse middle hinge, CH2, CH3) VH: EVQLVESGGGLVKPGGSLRLSCAASGFTFSSYTMNWVRQAPGKGLEWVSSISRSSSYKYYADSVKGRFTISRDNAKNSLYLQMNSLRAEDTAVYYCAREPPTLGMDYWGQGTLVIVSS VL: NFMLTQPHSVSESPGKTVTISCTRSNGSITSNYVQWYQQRPGSSPTTVIYEDNQRPSGVPDRFSGSIDSSSNSASLTISGLKTEDEADYYCQSFDNSNRVFGEKTKLTVL"
  pKd: 7.98
- Binder: "ABL-CD3-54 (antibody, V domains shown, Chimeric hybridoma mAb: human V, CH1, upper hinge; mouse middle hinge, CH2, CH3) VH: EVQLVESGGGLVKPGGSLRLSCAASGFTFSSYSMNWVRQAPGKGLEWVSSISRSSRYIFYADSVRGRFTISRDNAKNSLYLQMNSLRAEDTAVYYCAREKRELLFDYWGQGTLVTVSS VL: NSMLTQPHSVSESPGKTVTISCTRSSGSIASYYVQWYQQRPGSSPTTVIYEDNQRPSGVPDRFSGSIDSSSNSASLTISGLKTEDEADYYCQSFDSSNRVFGGGTKLTVL"
  pKd: 7.71
